So I've got a bunch of molecules here, and I need their Vdss values.
TEST NAME: Volume of distribution at steady state in Han Wistar rat plasma at 1 mg/kg, po or 0.5 mg/kg, iv measured for 1 to 24 hrs by LC-MS/MS analysis
Assay type: ADME, organism-based
MEASUREMENT SETUP: in vivo, time 1-24 hrs

Please look up its Vdss: "C[C@@H](c1ccc(F)cc1)n1cc(-c2cc(F)cc3c(C#N)n[nH]c23)c(=O)[nH]c1=O" 1.5 L/kg

What does the data say about its Vdss? Entry: C#Cc1n[nH]c2c(-c3cn(C(C)c4ccccc4)c(=O)[nH]c3=O)cc(F)cc12 (centres undefined) 4.6 L/kg

Entry under review: "C[C@@H](c1ccc(F)cc1)n1cc(-c2cc(F)cc3cn[nH]c23)c(=O)[nH]c1=O" . Reported Vdss? 4.3 L/kg

Request the reported Vdss associated with C#Cc1n[nH]c2c(-c3cn(C(C)c4ccccn4)c(=O)[nH]c3=O)cc(F)cc12 (centres undefined) 1.6 L/kg

----------
TEST NAME: Metabolic stability in Han Wistar rat hepatocytes assessed as intrinsic clearance measured per million cells at 1 uM measured at 0.5 to 2 hrs by LC-MS/MS analysis
Type: ADME, cell-based, Hepatocyte
MEASUREMENT SETUP: time 0.5-2 hrs, read-out: CLH
hepatocyte CLint at 1 µM of 20 µL/min/1e6 cells or higher: label 1. Under 20 µL/min/1e6 cells: label 0.

Is it the case that CC(c1cccc(-c2c[nH]cn2)c1)n1cc(-c2cc(F)cc(F)c2)c(=O)[nH]c1=O (stereo not given) has hepatocyte CLint at 1 µM reaching or exceeding 20 µL/min/1e6 cells? label 0

Is hepatocyte CLint at 1 µM for CC(c1ccccc1)n1cc(-c2cccc3c(C#N)n[nH]c23)c(=O)[nH]c1=O (stereo not given) at or above 20 µL/min/1e6 cells? label 1

hey, is hepatocyte CLint at 1 µM for this one >= 20 µL/min/1e6 cells? "C#Cc1n[nH]c2c(-c3cn([C@@H](C)c4ccccc4)c(=O)[nH]c3=O)cc(F)cc12" label 0

Given CC(c1cccc(-c2cc[nH]n2)c1)n1cc(-c2cc(F)cc(F)c2)c(=O)[nH]c1=O (stereo not given) , state whether its hepatocyte CLint at 1 µM is at least 20 µL/min/1e6 cells. label 1

Is the recorded value of hepatocyte CLint at 1 µM equal to or greater than 20 µL/min/1e6 cells for this compound? CC(c1cccc(-c2c[nH]cn2)c1)n1cc(-c2cccc3cn[nH]c23)c(=O)[nH]c1=O (stereo not given) label 0

----------
TEST NAME: Lipophilicity, logD of compound in octanol and water at pH 7.4 measured by shake-flask method
Format: physicochemical
Please provide measured logD for the entries that follow.
Give the figure only, with no unit attached.

Look up logD: CC(c1ccccc1)n1cc(-c2ccc3[nH]ccc3c2)c(=O)[nH]c1=O (stereo not given) 2.9

Name the recorded logD for CC(c1ccccc1)n1cc(-c2cc(F)cc3cn[nH]c23)c(=O)[nH]c1=O (stereo not given) . 2.5

Endpoint output: logD of CC(c1ccccc1)n1cc(-c2cccc3c(F)n[nH]c23)c(=O)[nH]c1=O (stereo not given) . Value? 3

So what does the record say about logD for CC(c1ccccc1)n1cc(-c2cc(F)cc(F)c2)c(=O)[nH]c1=O (stereo not given) ? 3.2

Given CC(c1cccc(-c2cn[nH]c2)c1)n1cc(-c2cc(F)cc(F)c2)c(=O)[nH]c1=O (stereo not given) , state its recorded logD. 3.4

logD lookup needed for CC(c1ccccc1)n1cc(-c2ccccc2)c(=O)[nH]c1=O (stereo not given) , thanks. 2.7

Suppose we examine the compound CC(c1ccccc1)n1cc(-c2cccc3c(C#N)n[nH]c23)c(=O)[nH]c1=O (stereo not given) ; what logD value has been reported? 2.9

Could you share which logD value was measured for C#Cc1n[nH]c2c(-c3cn(C(C)c4ccccc4)c(=O)[nH]c3=O)cccc12 (stereo not given) ? 3.2

Would you kindly share the measured logD for "C[C@@H](c1ccc(F)cc1)n1cc(-c2cc(F)cc3c(C#N)n[nH]c23)c(=O)[nH]c1=O" ? 3.3

# input compound: CC(c1cccc(-c2c[nH]cn2)c1)n1cc(-c2cccc3cn[nH]c23)c(=O)[nH]c1=O (stereo not given) ; wanted: its logD 2.3

These data points were gathered from ChEMBL document CHEMBL5346945.
